Compiled notes: published Ki values involving UniProt:Q13464.
measurement.type: Ki

compound=Cc1c[nH]c2nccc(Oc3ccc(C[C@H](N)C(=O)N4CCc5ncsc5C4)cc3F)c12 observed_measurement="< 3 nM"
compound=Cc1c[nH]c2nccc(Oc3ccc(C[C@H](N)C(=O)N4CCC(CN(C)C)CC4)cc3F)c12 observed_measurement="< 3 nM"
compound=Brc1cnc2[nH]c(-c3ccccc3)c(-c3ccc(N4CCOCC4)cc3)c2c1 observed_measurement="500 to 5000 nM"
compound="NC(C(=O)Nc1ccc(C(F)(F)F)cc1)c1ccc(Oc2ccnc3[nH]ccc23)cc1 (centres unmarked)" observed_measurement="> 30 nM"
compound=CC(=O)N1[C@H](C)CN(c2cccc(-c3c[nH]c4ncc(C(=O)N5CCCCC5)cc34)n2)C[C@@H]1C observed_measurement="500 to 5000 nM"
compound=N[C@@H](Cc1ccc(Oc2ccnc3[nH]cc(-c4ccccc4)c23)cc1)C(=O)N1CCN(Cc2ccccc2)CC1 observed_measurement="< 3 nM"
compound=CC(=O)N1[C@H](C)CN(c2nc(-c3c[nH]c4ncc(Cl)cc34)ccc2N)C[C@@H]1C observed_measurement="500 to 5000 nM"
compound=Cc1c[nH]c2nccc(Oc3ccc(C[C@H](N)C(=O)N4CCc5ccncc5C4)cc3F)c12 observed_measurement="< 3 nM"

* * *

Collected from the literature: Ki of various compounds toward Rho-associated protein kinase 1 (Homo sapiens, UniProt Q13464).
measurement.type: Ki

compound_string=COc1ccc(-c2c[nH]c3ncc(-c4ccc(F)cc4)cc23)cc1OC observed_measurement="< 500 nM"
compound_string=C[C@H](Nc1nc(-c2c[nH]c3ncc(Br)cc23)ncc1F)c1ccc(F)cc1 observed_measurement="500 to 5000 nM"
compound_string=c1cncc(CCNc2cc(-c3c[nH]c4nccc(Oc5ccc6c(c5)CNCC6)c34)ncn2)c1 observed_measurement="< 3 nM"
compound_string=O=C(Cc1ccccc1F)Nc1nc(-c2ccnc(Cl)c2)cs1 observed_measurement="100 to 1000 nM"

* * *

pKi: −log10 of the molar value.
Several reports have described pKi for Rho-associated protein kinase 1 (Homo sapiens, UniProt Q13464); a selection of those results is presented here.
measurement.type: pKi

compound="CC1=C(C(=O)Nc2ccc3cnccc3n2)C(c2ccc(C(F)(F)F)c(F)c2)n2nc(CN(C)C)cc2N1 (stereo not shown)" system_tested="Rho-associated protein kinase 1 (Homo sapiens, UniProt Q13464)" observed_measurement="> 7.30"
compound=Cc1c[nH]c2nccc(Oc3ccc(C[C@H](N)C(=O)N4CCN(C(=O)c5cccnc5)CC4)cc3F)c12 system_tested="Rho-associated protein kinase 1 (Homo sapiens, UniProt Q13464)" observed_measurement="> 8.52"
compound=CC(=O)N1[C@H](C)CN(c2nc(-c3c[nH]c4ncc(Cl)cc34)c(F)cc2C#N)C[C@@H]1C system_tested="Rho-associated protein kinase 1 (Homo sapiens, UniProt Q13464)" observed_measurement="5.30 to 6.30"
compound=CNC(=O)[C@H](CC(C)C)Nc1nc(-c2c[nH]c3ncc(Cl)cc23)ncc1F system_tested="Rho-associated protein kinase 1 (Homo sapiens, UniProt Q13464)" observed_measurement="5.30 to 6.30"

* * *

The entries below pair compounds with Ki values for Rho-associated protein kinase 1 (Homo sapiens, UniProt Q13464), as found in several publications.
measurement.type: Ki

compound=CS(=O)(=O)Nc1cccc(CC(=O)Nc2ccc(-c3c[nH]c4ncccc34)s2)c1 measurement_type=Ki observed_measurement="< 500 nM"
compound=C[C@H](Nc1cc(N2CCN(C(=O)OC(C)(C)C)CC2)nc(-c2c[nH]c3ncc(Cl)cc23)n1)C(=O)NCC(F)(F)F measurement_type=Ki observed_measurement="500 to 5000 nM"
compound="CCOC(=O)c1cc2n(n1)C(C1CCN(C)CC1)C(C(=O)Nc1ccc3[nH]ncc3c1)=C(C)N2 (centres unmarked)" measurement_type=Ki observed_measurement="> 500 nM"
compound=NC(=O)c1cccc(CC(=O)Nc2nc(-c3c[nH]c4ncccc34)cs2)c1 measurement_type=Ki observed_measurement="< 500 nM"
compound=CNC(=O)[C@@H](Nc1nc(-c2c[nH]c3ncc(Cl)cc23)ncc1F)C(C)C measurement_type=Ki observed_measurement="500 to 5000 nM"
compound=Nc1cc(-c2csc(NC(=O)Cc3cccc(OCCCN4CCNCC4)c3)n2)ccn1 measurement_type=Ki observed_measurement="< 100 nM"
compound=N[C@@H](Cc1ccc(Oc2ccnc3[nH]ccc23)cc1)C(=O)Nc1ccccc1 measurement_type=Ki observed_measurement="3 to 30 nM"
compound=O=C(Cc1ccccc1F)Nc1nc(-c2c[nH]c3ncccc23)cs1 measurement_type=Ki observed_measurement="< 500 nM"

* * *

pKi: −log10 of the molar value.
Field pKi: reported value for Rho-associated protein kinase 1 (Homo sapiens); entries drawn from several documents.
measurement.type: pKi

compound=CCN1CCN(CCCOc2cccc(CC(=O)Nc3nc(-c4ccnc(Cl)c4)cs3)c2)CC1 system_tested="Rho-associated protein kinase 1 (Homo sapiens)" observed_measurement="> 7.00"
compound=Cc1c[nH]c2nccc(Oc3ccc(C[C@H](N)C(=O)NCC4CN(C)C4)cc3F)c12 system_tested="Rho-associated protein kinase 1 (Homo sapiens)" observed_measurement="> 8.52"
compound=Cc1cc(-c2csc(NC(=O)Cc3cccc(S(=O)(=O)N(C)C)c3)c2)ccn1 system_tested="Rho-associated protein kinase 1 (Homo sapiens)" observed_measurement="< 6.00"
compound=CN(C)c1cc(-c2csc(NC(=O)Cc3cc4c(cc3Cl)OCO4)n2)ccn1 system_tested="Rho-associated protein kinase 1 (Homo sapiens)" observed_measurement="< 6.00"
compound=Clc1cnc2[nH]cc(-c3cccc(Sc4ccccc4Cl)n3)c2c1 system_tested="Rho-associated protein kinase 1 (Homo sapiens)" observed_measurement="5.30 to 6.30"
compound="Cc1c[nH]c2nccc(Oc3ccc(CC(N)C(=O)N4CCN(C5CC5)CC4)cc3F)c12 (stereo not shown)" system_tested="Rho-associated protein kinase 1 (Homo sapiens)" observed_measurement="> 8.52"
compound=Cc1c[nH]c2nccc(Oc3ccc(C[C@@H](N)C(=O)NC4CCCCC4)cc3F)c12 system_tested="Rho-associated protein kinase 1 (Homo sapiens)" observed_measurement="> 8.52"
compound=Cc1c[nH]c2nccc(Oc3ccc(C[C@H](N)C(=O)N4CCN(Cc5ccnnc5)CC4)cc3F)c12 system_tested="Rho-associated protein kinase 1 (Homo sapiens)" observed_measurement="> 8.52"
compound=CS(=O)(=O)Nc1cccc(CNC(=O)c2cc(-c3c[nH]c4ncccc34)cs2)c1 system_tested="Rho-associated protein kinase 1 (Homo sapiens)" observed_measurement="> 6.30"
compound=O=C(Cc1cccc(S(=O)(=O)N2CCOCC2)c1)N(c1nc(-c2c[nH]c3ncccc23)cs1)C1CC1 system_tested="Rho-associated protein kinase 1 (Homo sapiens)" observed_measurement="> 6.30"
compound=CC(=O)N1[C@H](C)CN(c2cccc(-c3c[nH]c4ncc(NC(=O)c5cccc(C)c5)cc34)n2)C[C@@H]1C system_tested="Rho-associated protein kinase 1 (Homo sapiens)" observed_measurement="5.30 to 6.30"
compound="CC1=C(C(=O)Nc2ccc3cnccc3c2)C(c2cccc(Oc3ccccc3)c2)n2nc(CO)cc2N1 (stereo not shown)" system_tested="Rho-associated protein kinase 1 (Homo sapiens)" observed_measurement="6.30 to 7.30"
compound=CC(=O)N1[C@H](C)CN(c2cccc(-c3c[nH]c4ncc(NC(=O)CCCN5CCNCC5)cc34)n2)C[C@@H]1C system_tested="Rho-associated protein kinase 1 (Homo sapiens)" observed_measurement="5.30 to 6.30"
compound=O=C(Cc1ccc(F)cc1F)Nc1nc(-c2c[nH]c3nccc(F)c23)cs1 system_tested="Rho-associated protein kinase 1 (Homo sapiens)" observed_measurement="> 6.30"
compound=C=C(C)C(=O)Nc1cnc2[nH]cc(-c3cccc(N4C[C@@H](C)N(C(C)=O)[C@@H](C)C4)n3)c2c1 system_tested="Rho-associated protein kinase 1 (Homo sapiens)" observed_measurement="5.30 to 6.30"
compound="CCOC(=O)c1cc2n(n1)C(c1ccc(C(F)(F)F)c(F)c1)C(C(=O)Nc1ccn3cnnc3c1)=C(C)N2 (stereo not shown)" system_tested="Rho-associated protein kinase 1 (Homo sapiens)" observed_measurement="< 6.30"

* * *

The following compounds were reported with pKi values on UniProt Q13464 in different studies.
pKi: −log10 of the molar value.
measurement.type: pKi

compound=CN(C)S(=O)(=O)c1cccc(CC(=O)Nc2cc(-c3ccnc(F)c3)cs2)c1 observed_measurement="6.00 to 7.00"
compound=C[C@@H](CC(=O)O)Nc1nc(-c2c[nH]c3ncc(Cl)cc23)ncc1F observed_measurement="5.30 to 6.30"
compound="CN(C)C(Cc1ccc(Oc2ccnc3[nH]ccc23)cc1)C(=O)NC1CCOCC1 (stereo not shown)" observed_measurement="< 7.52"
compound=Cn1cncc1-c1c[nH]c2nccc(Oc3ccc(C[C@H](N)C(=O)N4CCN(Cc5ccccc5)CC4)cc3)c12 observed_measurement="> 8.52"
